Here, each record is paired with measured pIC50 data.
- measurement target: Human CCR3 (Homo sapiens)
- Construct: The cloned CCR3 cDNA was constructed with pcDNA3 vector and transfected into a IC562 cell line; expressed in transfected cells
- Sequence (P51677 1-355): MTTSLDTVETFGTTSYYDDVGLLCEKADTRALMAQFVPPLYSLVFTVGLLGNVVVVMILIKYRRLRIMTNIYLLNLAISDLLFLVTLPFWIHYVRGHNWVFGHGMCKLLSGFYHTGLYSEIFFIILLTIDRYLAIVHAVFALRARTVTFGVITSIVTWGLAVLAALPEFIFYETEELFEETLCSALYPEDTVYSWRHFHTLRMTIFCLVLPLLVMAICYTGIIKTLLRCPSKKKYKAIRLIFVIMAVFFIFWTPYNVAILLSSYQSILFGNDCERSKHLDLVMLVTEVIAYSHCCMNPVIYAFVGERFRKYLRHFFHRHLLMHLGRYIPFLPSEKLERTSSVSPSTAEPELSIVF
- measurement notes: Calcium mobilization assay, eotaxin-stimulated
- Type: cell-based
- experimental parameters: human CCR3-transformed K562 cells, 10 nM eotaxin; compounds of about 40 to 90% purity; read-out: Activity grade Ca2+ (IC50 class)
pIC50: −log10 of the molar value. Structures can show the parent of a compound that is named as a salt.
measured attribute: pIC50

compound	experimental result
CCN1CCN(S(=O)(=O)c2cc(Cl)ccc2Oc2cc(C)cc(C)c2)CC1	> 6.00
Cc1cc(C)cc(Oc2cc(Cl)c(C(N)=O)cc2S(=O)(=O)N2CCNCC2)c1	5.00 to 6.00
O=[N+]([O-])c1ccc(Nc2ccc(Cl)cc2)c(S(=O)(=O)N2CCNCC2)c1	> 6.00
O=C(O)CCN1CCN(S(=O)(=O)c2cc([N+](=O)[O-])ccc2Sc2cc(Cl)cc(Cl)c2)CC1	> 6.00
Cc1ccc(C(=O)Nc2ccc(Oc3cc(C)cc(C)c3)c(S(=O)(=O)N3CCNCC3)c2)cc1	< 5.00
COc1cc(Oc2cc(C)cc(C)c2)c(S(=O)(=O)N2CCNCC2)cc1[N+](=O)[O-].Cl	< 5.00
O=[N+]([O-])c1ccc(Oc2ccc(F)cc2)c(S(=O)(=O)N2CCNCC2)c1	< 5.00
O=[N+]([O-])c1ccc(Oc2ccc(Cl)cc2)c(S(=O)(=O)N2CCNCC2)c1	< 5.00
Cc1cc(C)cc(N(C)c2ccc([N+](=O)[O-])cc2S(=O)(=O)N2CCNCC2)c1	> 6.00
Cl.O=S(=O)(c1cc(F)ccc1Oc1cc(Cl)cc(Cl)c1)N1CCNCC1	> 6.00
Cc1cc(C)cc(Oc2ccc([N+](=O)[O-])cc2S(=O)(=O)N2CCN(CCC(F)(F)F)CC2)c1	> 6.00
Cc1cc(C)cc(Oc2ccc(F)cc2S(=O)(=O)N2CCNCC2)c1	> 6.00
Cc1cc(C)cc(Oc2ccc(C(F)(F)F)cc2S(=O)(=O)N2CCNCC2)c1.Cl	> 6.00
Cc1cc(C)cc(Oc2ccc([N+](=O)[O-])cc2S(=O)(=O)N2CCN(CCOCCO)CC2)c1	> 6.00
CCN1CCN(S(=O)(=O)c2cc(I)ccc2Oc2cc(C)cc(C)c2)CC1	> 6.00
CN(C)c1cccc(Oc2ccc([N+](=O)[O-])cc2S(=O)(=O)N2CCNCC2)c1.Cl	5.00 to 6.00
Cl.O=S(=O)(c1c(F)cccc1Oc1cc(Cl)cc(Cl)c1)N1CCNCC1	> 6.00
CN(C)C(=O)c1ccc(Oc2cc(Cl)cc(Cl)c2)c(S(=O)(=O)N2CCNCC2)c1 [Example 10-1, hydrochloride]	5.00 to 6.00
Cc1cc(C)cc(Oc2ccc(C(=O)NCCC#N)cc2S(=O)(=O)N2CCNCC2)c1 [Example 22-1, hydrochloride]	> 6.00
CC(C)c1cccc(Oc2ccc([N+](=O)[O-])cc2S(=O)(=O)N2CCNCC2)c1.Cl	> 6.00
Cl.O=[N+]([O-])c1ccc(Oc2cccc(-c3ccccc3)c2)c(S(=O)(=O)N2CCNCC2)c1	> 6.00
Cc1cc(C)cc(Oc2cc(C)ccc2S(=O)(=O)N2CCNCC2)c1.Cl	> 6.00
O=[N+]([O-])c1ccc(Oc2cc(Cl)cc(Cl)c2)c(S(=O)(=O)N2CC3CCCNC3C2)c1 (stereo not shown)	> 6.00
Cl.O=[N+]([O-])c1ccc(Oc2c(F)c(F)c(F)c(F)c2F)c(S(=O)(=O)N2CCNCC2)c1	> 6.00
Cc1cc(C)cc(Oc2ccc([N+](=O)[O-])cc2S(=O)(=O)N2CCN(C(C)C)CC2)c1	> 6.00
Cl.O=[N+]([O-])c1ccc(Oc2cccc(C(F)(F)F)c2)c(S(=O)(=O)N2CCNCC2)c1	> 6.00
Cc1cc(C)cc(Oc2ccc([N+](=O)[O-])cc2S(=O)(=O)N2CCNCC2)c1 [Example 1-2, hydrochloride]	> 6.00
O=[N+]([O-])c1ccc(Nc2cccc(Cl)c2)c(S(=O)(=O)N2CCNCC2)c1	> 6.00
N#Cc1ccc(Oc2cc(Cl)cc(Cl)c2)c(S(=O)(=O)N2CCCC3CN(Cc4ccccc4)CC32)c1 (stereo not shown)	5.00 to 6.00
CN(C)CCN1CCN(S(=O)(=O)c2cc([N+](=O)[O-])ccc2Oc2cc(Cl)cc(Cl)c2)CC1	> 6.00
CC(=O)Nc1ccc(Oc2cc(C)cc(C)c2)c(S(=O)(=O)N2CCNCC2)c1	< 5.00
